Target: TDP-43 (Homo sapiens, UniProt Q13148 1-414)
Sequence (Q13148 whole entry): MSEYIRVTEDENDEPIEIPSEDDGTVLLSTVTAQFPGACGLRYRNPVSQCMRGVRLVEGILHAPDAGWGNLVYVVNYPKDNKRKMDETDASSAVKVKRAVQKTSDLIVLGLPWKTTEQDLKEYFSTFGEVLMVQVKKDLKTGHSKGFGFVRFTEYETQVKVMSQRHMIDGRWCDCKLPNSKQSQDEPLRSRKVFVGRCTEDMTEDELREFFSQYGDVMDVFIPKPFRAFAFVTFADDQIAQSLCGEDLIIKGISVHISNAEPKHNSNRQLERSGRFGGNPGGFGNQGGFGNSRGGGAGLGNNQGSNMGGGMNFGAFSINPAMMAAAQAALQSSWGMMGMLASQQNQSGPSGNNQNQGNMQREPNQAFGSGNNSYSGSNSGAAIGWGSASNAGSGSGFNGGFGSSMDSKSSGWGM
Test: RNA Bind-n-Seq with designed 260-mer pool; 25 mM Tris-HCl, 150 mM KCl, 3 mM MgCl2, BSA (printed 500 mg/mL), 20 units/mL SUPERase IN; pH not stated; 500 nM RNA pool, 1 h, 4 C; TDP-43 5, 50, 500 nM; high values mean tight binding
Conditions: protein: recombinant; tags: SBP (GST cleaved off with PreScission; pGEX-GST-SBP)
The full ranking holds about 9,900 sequences; the median of “r (bound/input frequency ratio)” is about 0.7, and the highest 2% start at about 6.5. This excerpt belongs to a sample that is enriched for the highest values.
Quick reference: binding signal of the listed items.

Field: example entries. Status: answers known.
binder	binding signal
ENSMUSG00000058297.107|Spock2|69:74 (ssRNA) RNA: GGGAGUUCUACAGUCCGACGAUCGCUUCGAUAUCCGCAUGCUAUGAGGCAGGACCUGUACACACAGCAAGGCUUACUAUCCGUCUCCUGACAUCCGAAGAGCUCGUCGCAGCACACACUAAUGGCCCUUGGGCUGCACGUGGUUAAGCAUAGCUGUCUCUGUGGCCCAACACAAAGAGGUAAACUUACUUAAAACACAGGGGUUUUGUUGCUGUUUGUUUUUUGUUAGUUUGUUUGUUGAUAAUUGGAUUGAGGAGUUAAUCCUCUGUCACAAUGUCAAAAGCAUGGACAUCCCUGAUAGAUUCUCUUGCGGUCGCACUAGUGUGGAAUUCUCGGGUGUCAAGG	1.04 R (bound/input frequency ratio)
ENSMUSG00000029636.436|Wasf3 (ssRNA) RNA: GGGAGUUCUACAGUCCGACGAUCGCUUCGAUAUCCGCAUGCUAGUGAGUGGAUAGGUGAAUGGAUGAUAGGUGGUGGAUGGUUGAGUGGGUGGAUUCAUGAUGGAUGGAUGGAUGGAUGGAUGGAUGGAUGGAUGGAUGAGUGGAUGGAUAAUAGGUUGAUGGGUGGAUAGGUAGAUGAGUGAAUAGAUAGAUAUAGAUCAGUGGGAGGAUUGGAAAGUAGGUGAAUGAAUGGAUGGCAGAUAGAUGGAUCAAUUACAGAUGGAUGGAUGCAUGGAAUAGAUAGGUGGAUGGGUGGUGGCUAGCUCUUGCGGUCGCACUAGUGUGGAAUUCUCGGGUGUCAAGG	6.61 R (bound/input frequency ratio)
ENSMUSG00000028439.180|Fam219a (ssRNA) RNA: GGGAGUUCUACAGUCCGACGAUCGCUUCGAUAUCCGCAUGCUAUGUGUGUGUGCCUGUGUGUGUGCGUGUGCGUGUGUGUAUGUGUGUGCGUGUGUGUGUGUGUGUGUUGUACCCGAGUGUGUGUUGAGCCUAUCUGUCCAGGGAACCAGAUUGGUGUCCGAGAUGAGGAAAUGGCUGUGGCCUGGGAAAUCAGUGAGAGGCCGCUUGGGAAUGAGAAUGCAGUGGACUGAAAGCACAGCCUGGCCAUCUGGAACCUGGGUUCUGGUCCCAGCCUCGGCAUUCUCCCUGAGCUCCUAAGCAAUCUCUUGCGGUCGCACUAGUGUGGAAUUCUCGGGUGUCAAGG	5.95 R (bound/input frequency ratio)
ENSMUSG00000029636.181|Wasf3 (ssRNA) RNA: GGGAGUUCUACAGUCCGACGAUCGCUUCGAUAUCCGCAUGCUACACAGCUCUCUUCUCUCCUGUUGUCGGCACAUUUUCAAUUUUAAAAAGUACCUCACAAGAUAAACUUGAUUCAGCCAGUUGCCCGGGCAGAGACCUGACUUCCCCUCUCCUGCCCUGAUCCUUUUUACCAAAUGGCGAUUCCAUAGUCCUGGCUGAGGCAGGGGCUCAAAGUCCAGUGUCUGCUUUGCAAUUCUGGAAGGACAGCUGCUUAUUUAAAUAAGUCUGUGAUAUCCGCAGGCUUGGGUUACAGGGAGGACCUUCUCUUGCGGUCGCACUAGUGUGGAAUUCUCGGGUGUCAAGG	0.344 R (bound/input frequency ratio)
ENSMUSG00000031028.90|Tub|13:17;146:150 (ssRNA) RNA: GGGAGUUCUACAGUCCGACGAUCGCUUCGAUAUCCGCAUGCUAGGCACUCAAGCUCAUACUAGAAAAAGCUCUGGUGGUCAGCAGAAAGCACUCCCACUUCAAAAGGGCCCAUUAGGCCCAAAGGGGGUUAGGAGUGGUAGGGAUAGGUGCGUGGCAGGUCCCUGCUAGGAUUGCAGGGGCCUGGCCAACACAAUUAGCUGGAGGCUUAGAAUGCUAGCUCAUUUGUUGCUACAGAUUUGCCCAGUGCUUGCACACGUAAGAACCCAGCUCUCAAGGCCAAAUAUCUGAGUGGAUGGGGAUGACUCUUGCGGUCGCACUAGUGUGGAAUUCUCGGGUGUCAAGG	1.27 R (bound/input frequency ratio)

Incoming: State the recorded binding signal for this entry: ENSMUSG00000043670.75|Diras1|97:102 (ssRNA) RNA: GGGAGUUCUACAGUCCGACGAUCGCUUCGAUAUCCGCAUGCUAUUUGAUCCCUGUGGAUCUGAAAACAGGGACCUGGCUAAGGAACUGCUCAUCCCAGUCAGGCCCAGAGAGGUUACCUUGCCUCUCCAUCUCUGUCCCACACACCCCAGCCAUGCCCACUGUCCCUGUCCCUCACAUUCUAUCACUGUGACCUCUGGGGAGUGCCCAUUGACCUCAUCUUCCUUCACUAAUAUCUUAUUUCUUUCACCUGAUCCUGUCCUUUCCCCGUGACCUCUGACCUGUGGCCUUCCCUGGGUCCAGAACUCUUGCGGUCGCACUAGUGUGGAAUUCUCGGGUGUCAAGG
Outgoing: 2.78 R (bound/input frequency ratio)

Incoming: Check ENSMUSG00000028439.177|Fam219a (ssRNA) RNA: GGGAGUUCUACAGUCCGACGAUCGCUUCGAUAUCCGCAUGCUAUAUGCACAUGUGUGUGCAUGUGUGUGUGCCUGUGUGUGUGCGUGUGCGUGUGUGUAUGUGUGUGCGUGUGUGUGUGUGUGUGUUGUACCCGAGUGUGUGUUGAGCCUAUCUGUCCAGGGAACCAGAUUGGUGUCCGAGAUGAGGAAAUGGCUGUGGCCUGGGAAAUCAGUGAGAGGCCGCUUGGGAAUGAGAAUGCAGUGGACUGAAAGCACAGCCUGGCCAUCUGGAACCUGGGUUCUGGUCCCAGCCUCGGCAUUCUCCUCUUGCGGUCGCACUAGUGUGGAAUUCUCGGGUGUCAAGG too.
Outgoing: 8.05 R (bound/input frequency ratio)
